So I've got a bunch of sequences here, and I need their binding signal values.
# tgt: HNF4alpha2 (COS-7 nuclear extract) (Homo sapiens, UniProt P41235 1-474)
# Sequence: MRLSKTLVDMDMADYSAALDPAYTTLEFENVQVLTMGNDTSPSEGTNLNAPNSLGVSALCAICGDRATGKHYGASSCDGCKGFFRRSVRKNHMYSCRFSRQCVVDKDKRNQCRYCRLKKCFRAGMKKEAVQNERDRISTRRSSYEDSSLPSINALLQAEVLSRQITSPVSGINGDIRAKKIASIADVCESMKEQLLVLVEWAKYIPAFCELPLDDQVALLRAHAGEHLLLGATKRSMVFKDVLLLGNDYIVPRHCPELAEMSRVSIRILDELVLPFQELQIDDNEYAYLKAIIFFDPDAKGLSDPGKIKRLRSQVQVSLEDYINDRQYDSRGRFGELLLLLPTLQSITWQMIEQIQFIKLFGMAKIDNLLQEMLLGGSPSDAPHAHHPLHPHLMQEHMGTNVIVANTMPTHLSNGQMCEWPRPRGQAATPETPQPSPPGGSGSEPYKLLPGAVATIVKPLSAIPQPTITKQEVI
# experiment notes: protein-binding microarray; COS-7 nuclear extract on double-stranded Agilent 4x180k PBM; binding buffer, salt, pH and temperature not given in the material; high values mean tight binding
# run conditions: chain copies: 2; label: 3' end of strand 1 on the slide; dsDNA, one strand shown
The full ranking holds about 18,000 sequences; the median of “log2 normalized intensity” is about 0.39, and the highest 2% start at about 6.6. The list comes from a sample in which the highest values are over-represented; it also holds close analogues and randomly drawn sequences.
Answers are plain numbers, in log2 normalized intensity.

Example entries begin here.
CCATGGTAAGAACTACAGTTGACCTTTGAAGCCTAGGGAGATTAGAGTATCGGTCGA: 7.38
GGGCCAGCAAGAGGTGACCCCAGGGCAAAGGCCTAGGGAGATTAGAGTATCGGTCGA: 2.92
TCACAGTGTGGGGCAAATCTGAGGTCAAAGGCCTAGGGAGATTAGAGTATCGGTCGA: 2.22

Batch request: binding signal for each of the following sequences.
1. CCTGAGGTGTGAGAGGGCAAAGGTCACAGCGCCTAGGGAGATTAGAGTATCGGTCGA
2. GGCTGAATGGGCAAAGGTCACAAGAGGTGCGCCTAGGGAGATTAGAGTATCGGTCGA
3. AGAGCACAACCTTTGGCCGTGCATGCTTGGGCCTAGGGAGATTAGAGTATCGGTCGA
4. TATAAAGGTCAACTGCCCTCTCAAATTACAGCCTAGGGAGATTAGAGTATCGGTCGA

Outgoing:
1. 8.02
2. 4.6
3. 1.84
4. 1.51

Batch request: binding signal for each of the following sequences.
1. AATGGGCAAAGGTCACAAGAGGTGCTGTGTGCCTAGGGAGATTAGAGTATCGGTCGA
2. GCATCAGGGTCCACAAGGGTTTAAATCTGAGCCTAGGGAGATTAGAGTATCGGTCGA

Outgoing:
[4.69, 1.03]

---

# tgt: HNF4alpha2 (COS-7 nuclear extract) (Homo sapiens, UniProt P41235 1-474)
# Sequence: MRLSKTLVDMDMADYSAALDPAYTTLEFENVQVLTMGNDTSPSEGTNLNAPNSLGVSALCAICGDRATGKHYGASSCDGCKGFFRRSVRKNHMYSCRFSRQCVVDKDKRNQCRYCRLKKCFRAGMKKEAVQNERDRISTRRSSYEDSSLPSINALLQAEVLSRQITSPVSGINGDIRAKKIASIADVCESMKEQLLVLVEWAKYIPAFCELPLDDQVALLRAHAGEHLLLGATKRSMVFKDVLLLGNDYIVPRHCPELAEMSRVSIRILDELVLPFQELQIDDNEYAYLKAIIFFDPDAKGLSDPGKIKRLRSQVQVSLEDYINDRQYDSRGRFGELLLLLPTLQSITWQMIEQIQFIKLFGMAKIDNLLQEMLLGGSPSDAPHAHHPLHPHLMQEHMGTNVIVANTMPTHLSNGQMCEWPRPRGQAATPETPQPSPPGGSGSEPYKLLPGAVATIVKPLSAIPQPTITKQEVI
# experiment notes: protein-binding microarray; COS-7 nuclear extract on double-stranded Agilent 4x180k PBM; binding buffer, salt, pH and temperature not given in the material; high values mean tight binding
# run conditions: chain copies: 2; label: 3' end of strand 1 on the slide; dsDNA, one strand shown
In all, about 18,000 sequences were measured (“log2 normalized intensity”: median about 0.39, highest 2% from about 6.6 on). What follows is part of a selection rich in the highest values, with near analogues and random picks from the rest.
Label true (1) when binding signal >= 4 log2 normalized intensity; otherwise false (0).

CTCACAGAGTGGAGTCTTCCGTTTGATAGAGCCTAGGGAGATTAGAGTATCGGTCGA: false (0)
AGGATGGGCCATGACCTTTACCCCCATTTGGCCTAGGGAGATTAGAGTATCGGTCGA: true (1)
AGGGGTTACTAGTGAGTTGGACTTTGGACCGCCTAGGGAGATTAGAGTATCGGTCGA: true (1)
CATGACCTTTGGACTGTGACCCCACCTCTCGCCTAGGGAGATTAGAGTATCGGTCGA: true (1)
GAAAATATTTCTCTGAACTTTGACCTATAGGCCTAGGGAGATTAGAGTATCGGTCGA: true (1)

Here is the next item to consider.
Incoming: Exam item: decide whether the reported binding signal for `AAACCCAAGATTTGGTGTTACCTTTGGACTGCCTAGGGAGATTAGAGTATCGGTCGA` is at least 4 log2 normalized intensity.
Outgoing: true (1)

Source of measurements: paper PMC10726135
